Listed here are molecules together with their documented growth inhibition.
assay: NCI Yeast Anticancer Drug Screen. Data for the cln2 rad14 strain (AID 165);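 note: 0% = growth equal to vehicle treated cultures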; conditions: S. cerevisiae cln2 rad14 strain, at 50.0 µM, active compounds read high
Compounds without any hit were thinned out: in the full panel of roughly 79,000, 15% have a hit. Where a SMILES comes first, the peptide text is derived from it. The star is where a group is joined. Cbz = O=C(OCc1ccccc1)*
I only need the number, in %, no unit after it.

Solved entries (count: 5):
[Q] Need growth inhibition of "O=C(O)c1cnccn1" , thanks.
[A] 12.6

[Q] Repeat for the following molecule: CCOC(=O)CCC(NC(=O)C(CCC(=O)OCC)NC(=O)OCc1ccccc1)C(=O)O (stereo not given) (tested in a mixture with another compound) (Cbz-Glu(OEt)-Glu(OEt)-OH; configuration not given here)
[A] -34.9

[Q] Now give it for "O=C(O)c1c[nH]c(=O)[nH]c1=O.[Cu+2]" too.
[A] -44.5

[Q] Would you kindly repeat that for COc1nc(SC)nc2c1cnn2C1OC(C(O)CO)C(OC)C1O (stereo not given) ?
[A] 9.95

[Q] Follow-up entry: "C/C=C/C(=O)Nc1cc(Cl)ccc1C"
[A] -52.1

More entries:
[Q] // returns reported growth inhibition for input "COC(=O)CCCCCCC/C=N/Nc1ccc([N+](=O)[O-])cc1[N+](=O)[O-]"
[A] 8.85

[Q] Likewise for CC(=O)OC(C(=O)O)C(OC(C)=O)C(OC(C)=O)C(=O)O (stereo not given) ?
[A] -5.85

[Q] Another molecule: "COC(=O)[C@]1(C)CCC[C@]2(C)C3=C[C@@H](O)[C@@]4(C(C)C)O[C@H]4[C@]3(O)CC[C@@H]12"
[A] -2.7

[Q] # iterate: "CCOc1nc(N)nc(C)c1N=Nc1ccccc1OC"
[A] 35.9

[Q] What do we get for Cc1ccc(C2SCC(=O)N2c2ccc(-c3ccc(-n4c(-c5ccccc5)nc5ccccc5c4=O)cc3)cc2)cc1 (stereo not given) ?
[A] -0.45

###

assay: NCI Yeast Anticancer Drug Screen. Data for the mlh1 rad18 strain (AID 175); conditions: S. cerevisiae mlh1 rad18 strain growth inhibition; at 50.0 µM; active compounds read high
The panel holds about 79,000 compounds, 15% with a hit somewhere; the sample as a whole holds those more often.
property measured: growth inhibition (%)
Report as a plain number; the unit % is understood.

[Q] Could you share which growth inhibition value was measured for "CC(=O)COC(C)=O" ?
[A] 12.6

More entries:
[Q] Dear colleague, I am looking for the recorded growth inhibition of the following compound: CCCCC(C)C(C)O (configuration not stated)
[A] -0.8

[Q] O=C(NC(CO)CO)c1ccc2cc(C(=O)N3CC(CCl)c4ccc([N+](=O)[O-])cc43)[nH]c2c1 (configuration not stated) ?
[A] -72.8

###

assay: NCI Yeast Anticancer Drug Screen. Data for the bub3 strain (AID 167); conditions: S. cerevisiae bub3 mutant strain, at 50.0 µM, active compounds read high
The panel holds about 79,000 compounds, 15% with a hit somewhere; the sample as a whole holds those more often. *1 amine or outer side, *2 acyl side, *3 side chain or, on linkers, in order; H or OH if unused. Where a SMILES comes first, the peptide text is derived from it. Bridges are numbered along the chain shown (N, C = ends). Roman numbers before positions name the chains, in order. [ ]: non-standard residue; d: D form. Actinocin(9to1) = Cc1c2oc3c(C)ccc(C(=O)[*:1])c3nc-2c(C(=O)[*:2])c(N)c1=O; NMeF = CN[CH](Cc1ccccc1)C(=O)O; Sar = CNCC(=O)O
growth inhibition values by entry
Record the value in %, omitting the unit from your answer.

The following compounds have reported results that may help.
[Q] Any idea what growth inhibition was measured for "CCN(CC)c1ccc2cc(C(=O)Nc3cccc4ccccc34)c(=N)oc2c1" ?
[A] -25.9

[Q] Follow-up entry: C=C1[C@H](OCC(C)C)[C@@H](OC(=O)C(C)CC)[C@@H](O)C(C)(C)/C=C/[C@H](C)C(=O)[C@@]2(O)C[C@H](C)[C@H](O)[C@@H]2[C@H]1OC(=O)C(C)CC (stereo partly drawn)
[A] 73.7

[Q] Also "O=c1[nH]c2nc[nH]c(=O)c2[nH]1" , if possible.
[A] -6.05

[Q] Same question, "COc1cc2oc(=O)ccc2cc1[C@@H]1OC(=O)[C@@]2(C)O[C@@H]12" this time
[A] 3.35

[Q] Now the compound "CCCCCCCCCCCCCCCc1cc(=O)n(-c2ccc(NC(C)=O)cc2)n1C"
[A] -1

[Q] Next: Cc1c2oc3c(C)ccc(C(=O)NC4C(=O)NC(C(C)C)C(=O)N5CCCC5C(=O)N(C)CC(=O)N(C)C(Cc5ccccc5)C(=O)OC4C)c3nc-2c(C(=O)NC2C(=O)NC(C(C)C)C(=O)N3CCCC3C(=O)N(C)CC(=O)N(C)C(Cc3ccccc3)C(=O)OC2C)c(N)c1=O (stereo not drawn) (I: TVP[Sar][NMeF] / II: TVP[Sar][NMeF]; ester I:1-I:C, II:1-II:C; linker I:N-II:N via Actinocin(9to1); configuration not given here)
[A] -23.6

More entries:
[Q] Quick one: growth inhibition of "COC(=O)/C(C#N)=C/c1cccnc1" ?
[A] -5.45

[Q] Next up: O=C1NC(=O)C(F)[CH]([Ge](=[O])[O][Ge](=[O])[CH]2NC(=O)NC(=O)C2F)N1 (stereo not drawn)
[A] 0.7

###

experiment: NCI Yeast Anticancer Drug Screen. Data for the cln2 rad14 strain (AID 165);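 note: 0% = growth equal to vehicle treated cultures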; conditions: S. cerevisiae cln2 rad14 strain, at 50.0 µM, active compounds read high
This is part of a sample that, as a whole, favours compounds with a hit. Of some 79,000 tested, about 15% had one in any assay.
Examples of compounds with documented growth inhibition follow.
Give just the numeric value; % need not be written.

[Q] May I ask what growth inhibition has been recorded for O=C(NC(Cc1ccccc1)C(=O)O)c1ccccc1 (configuration not stated) ?
[A] -1.6

Continuing:
[Q] Using the record for "CCN(CC)COC(=O)C(C)(C)C" , report its growth inhibition.
[A] -35

[Q] Next compound up: O=C(/C=C/c1ccccc1)NC1C=Nc2ccccc2NC1=O (configuration not stated)
[A] -11.9

[Q] Now give it for O=C(c1ccc(Br)cc1)C(C(c1ccccc1)N1CCOCC1)N1CCOCC1 (configuration not stated) too.
[A] -19.5

[Q] Next compound up: "CN(C)C1=NC(c2ccccc2)(c2ccccc2)C(=O)N1"
[A] -40.5

[Q] Another compound to look at: OCC(O)C(O)C(OC1OC(CO)C(O)C(O)C1O)C(O)CO (configuration not stated)
[A] -2.2

[Q] And the next one, CN1CCCc2cccc(NC(=O)C3CCCNC3=O)c21 (configuration not stated) ?
[A] -32.8

[Q] Same question for "C/C(CCC(=O)O)=N\NC(=O)COc1ccc(Cl)cc1Cl" please.
[A] 12.1

###

Entries and their measured growth inhibition follow.
assay: NCI Yeast Anticancer Drug Screen. Data for the mlh1 rad18 strain (AID 175); settings: S. cerevisiae mlh1 rad18 strain growth inhibition; at 50.0 µM; active compounds read high
This is part of a sample that, as a whole, favours compounds with a hit. Of some 79,000 tested, about 15% had one in any assay.
Entry rule: numbers only, all in %.

[Q] What does the record list as growth inhibition for CC1=C(C(=O)NC(C)(C)C)CC(C(=O)NC(C)(C)C)C(C)N1 (stereo unspecified) ?
[A] -18.2

[Q] What about this compound? "COC(=O)CCCN1C(=O)c2ccccc2C1=O"
[A] -3.95

###

test: NCI Yeast Anticancer Drug Screen. Data for the cln2 rad14 strain (AID 165);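 note: 0% = growth equal to vehicle treated cultures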; conditions: S. cerevisiae cln2 rad14 strain, at 50.0 µM
The panel holds about 79,000 compounds, 15% with a hit somewhere; the sample as a whole holds those more often. Active and inactive are the calls of the source. No stated cut-off is given here; in the data, active means growth inhibition above about 70%; inactive means the rest.
The reply should be one of these categories: active, inactive

Here's what some known entries look like.
[Q] Outcome logged for COC(=O)C(C(=O)C(=O)NC1=C(Cl)C(=O)c2ccccc2C1=O)c1csc(-n2nc(-c3ccccc3)cc2-c2ccccc2)n1 (stereo not given) in this assay:
[A] inactive

[Q] Now the same for "Nc1ccn([C@@H]2C=C(CO)[C@@H](O)[C@H]2O)c(=O)n1"
[A] inactive

[Q] Next record, please: "COc1cccc(/C=C2/C(=O)N(c3ccc([N+](=O)[O-])cc3)N=C2C)c1"
[A] inactive

[Q] Moving on to the next compound: O=C(O)C1C(Br)C(Br)C1C(=O)O (stereo not given) (tested in a mixture with another compound)
[A] inactive

[Q] Entry to check: "CCOC(=O)C(CC(CC(C(=O)OCC)C(=O)OCC)=C(C)C)C(=O)OCC"
[A] inactive

***
[Q] What call does the record list for "CN(C)CCNC(=O)CN" ?
[A] inactive

[Q] Next compound: "Cc1cc(=O)[nH]c2cc(O)c(C(=O)O)cc12"
[A] inactive

[Q] Another compound to look at: "CCCCCc1nnc2n1N=C(c1ccc(Cl)cc1)CS2"
[A] inactive

[Q] One more compound: "COc1ccc(OC)c(NC(=O)Nc2cccc(C(C)=O)c2)c1"
[A] inactive

[Q] Would you kindly repeat that for O=C1C2C(C(=O)N1c1cccc3ccccc13)C1(Cl)C(Cl)=C(Cl)C2(Cl)C1(Cl)Cl (stereo not given) ?
[A] active

Recorded values, source PubChem BioAssay (NCI).
